Please respond with reported B-score for every item in the list.
test system: Balamuthia mandrillaris (ATCC PRA-291) trophozoites, axenic culture; assay: primary screen, b score; conditions: 20 µM
Whole data set: some 2,000 compounds, median “B-score” near -0.0024, cut for the highest 2% near 4. For the sample, the highest values were picked, then their nearest neighbours and some compounds at random.
Just the number, please.

# input compound: C[N+](C)(C)CCCCCCCCCC[N+](C)(C)C ; wanted: its B-score
0.626

Item: CC(C)NCC(O)COc1cccc2ccccc12 (stereo not drawn)
0.797

Item: Cc1ccsc1/C=C/C1=NCCCN1C
2.44

Item: Nc1nc(=O)n([C@@H]2CS[C@H](CO)O2)cc1F
-0.911

Item: CC[N+](CC)(CC)CCOc1cccc(OCC[N+](CC)(CC)CC)c1OCC[N+](CC)(CC)CC
5.36

Item: O=C1CC[C@@H](N2C(=O)c3ccccc3C2=O)C(=O)N1
-1.22
